Reference source: the supplement of paper PMC10724198

Assign protein stability index to each entry below.
- Test system: Saccharomyces cerevisiae;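 further: PSI is a weighted mean of sequencing reads over stability bins, variants kept only with over 10 reads, mCherry proximal and sfGFP distal, peptide attached via GGGS linker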
- Protocol text: protein stability index of tFT-peptide fusion (C-terminal peptide) (PSI (0-1 scale)); higher = more stable (slower turnover)
- Conditions used: genetic background: cdc34-1; temperature: 37 C
One number for each entry.

FRFSCLFSLFLS ... 0.413
SVKRVVPCLVSC ... 0.442
CALLLLSVRAGQ ... 0.537
HGVRLHTVWVGG ... 0.55
RKNSQKILKLSG ... 0.694
ARRFLVRRFILF ... 0.545

Count: 3. Required value per item: protein stability index.
1. FFLKPVPSLFLC
2. GFVLLCFCCRTW
3. CPALYMPPPVLV

Result:
1: 0.388; 2: 0.28; 3: 0.114

Count: 7. Required value per item: protein stability index.
1. CFTLSLCLAFFF
2. FLLEVFVLGRTL
3. VSLSWFSCCFVG
4. RWGLFIGIVIGF
5. VLARGFHCMYFC
6. CFLLVSLGILCW
7. WVFVVWFVFVVG

Result:
1. 0.41
2. 0.627
3. 0.497
4. 0.146
5. 0.68
6. 0.0312
7. 0.242

Count: 6. Required value per item: protein stability index.
1. RLVGVRWEVCNL
2. SPSSLPRPLFLS
3. VYCCVRSLRVAI
4. WFFPVSPPVMAS
5. LYIQWVSRWSVQ
6. LFSIFMSYRVYI

Result:
1: 0.91; 2: 0.592; 3: 0.553; 4: 0.181; 5: 0.611; 6: 0.35
